Conditions: in isopropyl myristate, 303.15 K
REPORTED METRIC: solubility (mole fraction)
// response body must contain only the number

Give me measured solubility (mole fraction), please, for this molecule: `Oc1cc(Cl)ccc1Oc1ccc(Cl)cc1Cl`
0.0527

---

Settings: in ethanol, 293.15 K
REPORTED METRIC: solubility (mole fraction)
Answer with a bare number; do not write a unit.

Given `Oc1cc(Cl)ccc1Oc1ccc(Cl)cc1Cl` , respond with its solubility (mole fraction).
0.332

---

Conditions: in ethanol, 303.15 K
REPORTED METRIC: solubility (mole fraction)

Give solubility (mole fraction) for `Oc1cc(Cl)ccc1Oc1ccc(Cl)cc1Cl`
0.57

---

Conditions: in n-heptane, 303.15 K
REPORTED METRIC: solubility (mole fraction)
API doc: respond with a numeric literal and nothing else, no unit.

Read the entry `Oc1cc(Cl)ccc1Oc1ccc(Cl)cc1Cl` and write its reported solubility (mole fraction).
0.0421

---

Details: in ethanol, 313.15 K
REPORTED METRIC: solubility (mole fraction)
Reply with just the number.

Tell me solubility (mole fraction) reported for `Oc1cc(Cl)ccc1Oc1ccc(Cl)cc1Cl`
0.751

---

Details: in n-octanol, 298.15 K
REPORTED METRIC: solubility (mole fraction)
Give the value as a plain number.

Annotate the molecule `Oc1cc(Cl)ccc1Oc1ccc(Cl)cc1Cl` with its measured solubility (mole fraction).
0.025

---

Details: in n-octanol, 308.15 K
REPORTED METRIC: solubility (mole fraction)
Reply with just the number.

Item `Oc1cc(Cl)ccc1Oc1ccc(Cl)cc1Cl` : provide solubility (mole fraction)
0.157

---

Conditions: in n-octanol, 293.15 K
REPORTED METRIC: solubility (mole fraction)
Answer using only a numeral; do not append any unit.

Tell me its solubility (mole fraction) given `Oc1cc(Cl)ccc1Oc1ccc(Cl)cc1Cl` as the entry.
0.0089

---

Conditions: in chloroform, 303.15 K
REPORTED METRIC: solubility (mole fraction)
Give the figure only, with no unit attached.

Name the recorded solubility (mole fraction) of the item `Oc1cc(Cl)ccc1Oc1ccc(Cl)cc1Cl` in your answer.
0.501

---

Details: in n-octanol, 313.15 K
REPORTED METRIC: solubility (mole fraction)
Give your answer as a number; write no unit.

Quickly give me recorded solubility (mole fraction) for `Oc1cc(Cl)ccc1Oc1ccc(Cl)cc1Cl`
0.285

---

Details: in ethanol, 308.15 K
REPORTED METRIC: solubility (mole fraction)
Give the figure only, with no unit attached.

Give the measured solubility (mole fraction) for `Oc1cc(Cl)ccc1Oc1ccc(Cl)cc1Cl`
0.654

---

Conditions: in n-octanol, 303.15 K
REPORTED METRIC: solubility (mole fraction)
// no unit string in output, number only

Please list solubility (mole fraction) recorded for the compound `Oc1cc(Cl)ccc1Oc1ccc(Cl)cc1Cl`
0.0785

---

Details: in n-heptane, 293.15 K
REPORTED METRIC: solubility (mole fraction)
Please reply with the value in numeric form only.

Specify measured solubility (mole fraction) for `Oc1cc(Cl)ccc1Oc1ccc(Cl)cc1Cl` .
0.0156

---

Conditions: in isopropyl myristate, 293.15 K
REPORTED METRIC: solubility (mole fraction)
Give the figure only, with no unit attached.

Provide one value: measured solubility (mole fraction) of `Oc1cc(Cl)ccc1Oc1ccc(Cl)cc1Cl`
0.0422

---

Details: in n-heptane, 298.15 K
REPORTED METRIC: solubility (mole fraction)
The answer should be written as a number, with no unit following it.

Look up solubility (mole fraction) of `Oc1cc(Cl)ccc1Oc1ccc(Cl)cc1Cl` and report it.
0.0286

---

Conditions: in chloroform, 293.15 K
REPORTED METRIC: solubility (mole fraction)
Please give the numeric answer without any surrounding text.

State its solubility (mole fraction) for this compound: `Oc1cc(Cl)ccc1Oc1ccc(Cl)cc1Cl`
0.33

---

Settings: in ethanol, 298.15 K
REPORTED METRIC: solubility (mole fraction)
// return just the number, without any unit appended

State its solubility (mole fraction): `Oc1cc(Cl)ccc1Oc1ccc(Cl)cc1Cl`
0.449

---

Details: in chloroform, 298.15 K
REPORTED METRIC: solubility (mole fraction)
When you answer, write just the number.

Assign solubility (mole fraction) to the following record: `Oc1cc(Cl)ccc1Oc1ccc(Cl)cc1Cl`
0.412

---

Details: in isopropyl myristate, 298.15 K
REPORTED METRIC: solubility (mole fraction)
Lab note: write the figure by itself, no unit.

Assign solubility (mole fraction) to the following record: `Oc1cc(Cl)ccc1Oc1ccc(Cl)cc1Cl`
0.0475

---

Conditions: in isopropyl myristate, 308.15 K
REPORTED METRIC: solubility (mole fraction)
Please give only the number in your answer, with no unit.

Supply solubility (mole fraction) value. Item: `Oc1cc(Cl)ccc1Oc1ccc(Cl)cc1Cl`
0.0563
